In this section we review reported GCG EC50 (nM); cAMP, agonistic activity values for a set of binders.
Target: GCG receptor (GCGR) (UniProt P47871 26-477, limits assumed)
Sequence (P47871 26-477 limits assumed): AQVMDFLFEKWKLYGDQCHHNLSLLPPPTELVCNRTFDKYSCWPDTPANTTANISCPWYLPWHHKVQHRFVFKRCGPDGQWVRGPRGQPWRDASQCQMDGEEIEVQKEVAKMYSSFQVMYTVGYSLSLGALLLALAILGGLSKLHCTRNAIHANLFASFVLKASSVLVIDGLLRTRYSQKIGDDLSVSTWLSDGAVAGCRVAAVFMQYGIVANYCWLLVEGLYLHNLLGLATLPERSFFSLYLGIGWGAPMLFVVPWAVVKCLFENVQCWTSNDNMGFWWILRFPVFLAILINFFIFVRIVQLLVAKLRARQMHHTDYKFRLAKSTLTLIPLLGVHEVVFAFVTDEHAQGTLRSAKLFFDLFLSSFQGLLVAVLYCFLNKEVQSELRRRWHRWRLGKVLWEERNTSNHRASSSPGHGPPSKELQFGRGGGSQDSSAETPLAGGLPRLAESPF
Experiment: cell-based or functional assay
Bridge positions count the residues as written; N and C are the ends. Square brackets hold non-standard residues; d marks the D form. Ends that are not written are not given here. stapled body chem0195 = not defined here; stapled body chem0209 = not defined here; αMeL = CC(C)C[C@](C)(N)C(=O)O; Aib = CC(C)(N)C(=O)O

| binder | GCG EC50 (nM); cAMP, agonistic activity |
| --- | --- |
| Y[Aib]QGTFTSDYSI[αMeL]LDKKAQ[Aib]KFIEFLLKGGPSSGAPPPS-NH2 (linker 21-28 via Ida, Lys, Lys, γGlu, C20 diacid; also: further groups not given here) [Example 26] | 0.11 |
| Y[Aib]QGTFTSDYSI[αMeL]LDKKAQ[Aib]AFIKWLLKGGPSSGAPPPS-NH2 (linker 24-28 via stapled body chem0195; reading uncertain; also: further groups not given here) [Example 2] | 0.279 |
| Y[Aib]QGTFTSDYSI[αMeL]KDKKAQ[Aib]AFIEYLLKGGPSSGAPPPS-NH2 (bridge 14-17; not fully specified (bridges); also: stapled body (lipidated) structure only in drawing chem0263) [Example 54] | 0.02 |
| Y[Aib]QGTFTSDYSI[αMeL]LDKKAQ[Aib]KFIEYLLEGGPSSGAPPPS-NH2 (bridge 17-21; also: further groups not given here) [Example 7] | 0.061 |
| Y[Aib]QGTFTSDYSI[αMeL]LDKKAQ[Aib]AFIKYLLEGGPSSGAPPPS-NH2 (linker 17-24 via stapled body chem0209; reading uncertain; also: further groups not given here) [Example 11] | 0.129 |
| Y[Aib]QGTFTSDYSI[αMeL]KDKKAQ[Aib]AFIEYLLEGGPSSGAPPPS-NH2 (linker 14-17 via (2-2-oxoethyl)‑glycine, AEEA, γGlu, C20 diacid) [Example 21] | 0.039 |
| Y[Aib]QGTFTSDYSI[αMeL]KDKKAQ[Aib]AFIQYLLEGGPSSGAPPPS-NH2 (bridge 14-17; not fully specified (bridges); also: stapled body (lipidated) structure only in drawing chem0245) [Example 42] | 0.025 |

// provenance: patent EP4624486A1
